tested_system: T1, human GIP receptor (human, UniProt P48546 22-466)
T1 sequence (looked up): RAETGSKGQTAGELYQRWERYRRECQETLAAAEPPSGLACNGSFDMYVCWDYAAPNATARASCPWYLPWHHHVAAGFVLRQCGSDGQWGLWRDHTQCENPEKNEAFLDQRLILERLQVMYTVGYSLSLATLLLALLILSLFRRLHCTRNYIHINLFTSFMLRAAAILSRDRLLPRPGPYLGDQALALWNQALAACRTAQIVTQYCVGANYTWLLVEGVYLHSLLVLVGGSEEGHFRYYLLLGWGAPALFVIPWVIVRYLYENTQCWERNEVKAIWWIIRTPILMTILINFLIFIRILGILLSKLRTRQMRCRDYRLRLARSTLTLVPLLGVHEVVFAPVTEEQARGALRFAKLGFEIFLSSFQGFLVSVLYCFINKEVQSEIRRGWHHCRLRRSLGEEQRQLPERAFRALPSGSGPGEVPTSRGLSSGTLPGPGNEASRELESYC
assay_details: cell-based or functional assay
Bridges are numbered along the chain shown (N, C = ends). Where no end group is shown, it is not given here. [ ]: non-standard residue; d: D form. Aib = CC(C)(N)C(=O)O
reported_metric: in vitro Activity Compared to Native Peptide (%), vs GIP

## Task Could you share which in vitro Activity Compared to Native Peptide (%), vs GIP value was measured for Y[Aib]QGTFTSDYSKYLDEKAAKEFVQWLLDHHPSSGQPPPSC (bridge 16-20; not fully specified (C-terminus)) [triple agonist of SEQ ID NO: 75] ?
## Result 18%

## Task Could you share which in vitro Activity Compared to Native Peptide (%), vs GIP value was measured for Y[Aib]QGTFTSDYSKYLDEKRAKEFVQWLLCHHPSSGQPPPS (bridge 16-20; not fully specified (C-terminus)) [triple agonist of SEQ ID NO: 95] ?
## Result < 0.1%

Turning now to a further binder:
## Task Could you share which in vitro Activity Compared to Native Peptide (%), vs GIP value was measured for H[Aib]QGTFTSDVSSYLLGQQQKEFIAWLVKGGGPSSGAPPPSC-NH2 [triple agonist of SEQ ID NO: 5] ?
## Result < 0.1%
